- PROTOCOL: qHTS assay to identify small molecule agonists of the RXR signaling pathway - cell viability counter screen (AID 1159529);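 note: HEK 293T cells carrying an RXR-alpha UAS beta-lactamase reporter; % is set by controls: 0 for no effect and ±100 for the full control effect; nearly all actives have a fitted effect of over 50% in size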
- SETUP CONDITIONS: RXR-alpha-bla HEK293T viability, CellTiter-Glo, 16 h; series mostly up to 76.8 µM
Records with an inconclusive call do not appear. Active and inactive are the calls of the source. Calls come from the whole dose curve; as a rule, active = well fitted cell-killing curve with a large enough effect in the repeat runs; inconclusive = weak or mixed curves, or effect the other way; inactive = no such curve, though single readings can be large or run the other way.
METRIC: activity change, negative = cytotoxicity

# count of solved cases: 4
CCOC(=O)CC(C(C)=O)C(C)=O :: inactive
Cc1ccc2ccccc2n1 :: inactive
N=C(N)N1CCc2ccccc2C1 :: 2.64% [at 6.97 µM] (inactive)
CC(C)(C)C(=O)CC(=O)C(C)(C)C :: inactive

Request: Fill in the blank: the reported activity change, negative = cytotoxicity of `CN(C)c1ccncc1` is ____.
Result: inactive

Request: Same for `C/C=C(\C)C(=O)OC/C=C(\C)CCC=C(C)C`
Result: inactive

Request: Repeat with `CN(C)CCc1c[nH]c2ccc(CS(=O)(=O)N3CCCC3)cc12`
Result: inactive

Request: Record: `CCCCCCCCCCCCCCCCN(C)C`
Result: 1.35% [at 6.97 µM] (inactive)

----------
- MEASUREMENT TARGET: Luciferin 4-monooxygenase (Photinus pyralis)
- PROTOCOL: qHTS assay to identify small molecule inhibitors of firefly luciferase (AID 1224835); note: % is set by controls: 0 for no effect and ±100 for the full control effect; nearly all actives have a fitted effect of over 25% in size
- SETUP CONDITIONS: purified P. pyralis luciferase, luminescence inhibition; series mostly up to 115 µM
Inconclusive results are not listed. The source made the active and inactive calls. Calls follow the shape of the dose curve; as a rule, active = well fitted inhibition curve with a large enough effect in the repeat runs; inconclusive = weak or mixed curves; inactive = flat fitted curve, though single readings scatter.
METRIC: activity change, negative = inhibition

Request: Entry under review: C[C@@H]1NC(=O)[C@@H](N)CNC(=O)[C@H](C2CCNC(N)=N2)NC(=O)/C(=C/NC(N)=O)NC(=O)[C@H](CNC(=O)C[C@@H](N)CCCN)NC1=O (stereo partly specified) . Reported activity change, negative = inhibition?
Result: -1.34% [at 0.435 µM] (inactive)

Request: Similarly, `N=C(N)N1CCc2ccccc2C1` ?
Result: -2.87% [at 10.5 µM] (inactive)

Request: Can you handle `CN(C)CCCN(C)C` next?
Result: 2.53% [at 10.5 µM] (inactive)

Request: `CCCCCCCCCCCCCCCCN(C)C` ?
Result: 3.25% [at 10.5 µM] (inactive)

Request: Entry `C=CCCCCCCCCCCCCCC` please
Result: 0.285% [at 23.6 µM] (inactive)

Request: Repeat for the following compound: `c1cc2ccc3ccc4ccc5cccc6c(c1)c2c3c4c56`
Result: 1.19% [at 4.07 µM] (inactive)

----------
- PROTOCOL: qHTS RealTime-Glo MT Cell Viability Assay in HEK293 cells - 0 hour (AID 1224880); note: top concentration of the series differs between compounds; % is set by controls: 0 for no effect and ±100 for the full control effect; nearly all actives have a fitted effect of over 45% in size
- SETUP CONDITIONS: RealTime-Glo luminescence; series mostly up to 76.8 µM
Results filed as inconclusive are left out. The source made the active and inactive calls. Calls follow the shape of the dose curve; as a rule, active = well fitted cell-killing curve with a large enough effect in the repeat runs; inconclusive = weak or mixed curves, or effect the other way; inactive = flat fitted curve, though single readings scatter. Non-standard residues stand in square brackets, D forms with d. Residues, ends and D or L forms follow the SMILES beside them. *: point of attachment. Sta = CC(C)C[C@H](N)[C@@H](O)CC(=O)O; Isovaleryl = CC(C)CC(=O)*
METRIC: activity change, negative = cytotoxicity

Reference set (5 entries):
C[Si](C)(C)O[Si](O)(O)O :: inactive
C=CCCCCCCCCCCCCCC :: -0.897% [at 15.8 µM] (inactive)
CC1(C)C(=O)C(C)(C)C1=O :: inactive
CC(C)CC(=O)N[C@H](C(=O)N[C@H](C(=O)N[C@@H](CC(C)C)[C@@H](O)CC(=O)N[C@@H](C)C(=O)N[C@@H](CC(C)C)[C@@H](O)CC(=O)O)C(C)C)C(C)C (Isovaleryl-VV[Sta]A[Sta]-OH) :: inactive
c1cc2ccc3ccc4ccc5cccc6c(c1)c2c3c4c56 :: -3.02% [at 2.72 µM] (inactive)

In the following, a different compound is considered.
Request: Looking for the measured activity change, negative = cytotoxicity of `CCOCCOCCOC(C)=O` , can you help?
Result: inactive
